Taken from patent US20120316071A1.

Target: T1, rHuman Erythropoietin R/Fc Chimera, CF (R&D Systems Cat#963-ER) (human, UniProt P19235 25-250)
T1 construct: Bought recombinant protein; also called EPO R; EPO R/Fc; Fc part of the bought chimera not given
T1 sequence (looked up): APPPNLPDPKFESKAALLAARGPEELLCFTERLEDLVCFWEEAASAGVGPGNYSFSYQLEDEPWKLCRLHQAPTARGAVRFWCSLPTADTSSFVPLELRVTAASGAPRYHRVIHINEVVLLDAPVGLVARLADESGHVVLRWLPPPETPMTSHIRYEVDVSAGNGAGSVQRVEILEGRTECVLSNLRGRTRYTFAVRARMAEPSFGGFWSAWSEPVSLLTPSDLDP
Assay: ECL multispot (MSD) binding assay, antigen spotted on plate, Fab 0.04 uM;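 further: purified Fab incubated 1 h at 20 °C on antigen spots, detected via TAG-labelled antibody, ECL read against each well's blank, with signal-to-blank of at least 4 scored as binder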
Parameter: ECL signal. Scope: all listed entries.
Reply briefly: the number, and no unit.

{"columns": ["binder", "ECL signal"],
 "data": [
  ["Fab VH5-51_IGHD5-18*01>3_IGHJ4*01 G100K/G104T (H:KT) & V3-4_IGLJ1*01 V91A (Fab, V domains shown, Fab; Expressed from Plasmid A (CH1, His6 and Flag tags) and Plasmid E (lambda CL); also called KT & V91A) VH: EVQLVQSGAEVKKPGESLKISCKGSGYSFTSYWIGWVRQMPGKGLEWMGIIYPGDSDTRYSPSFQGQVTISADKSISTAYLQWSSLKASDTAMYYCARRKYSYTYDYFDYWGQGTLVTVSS VL: QTVVTQEPSFSVSPGGTVTLTCGLSSGSVSTSYYPSWYQQTPGQAPRTLIYSTNTRSSGVPDRFSGSILGNKAALTITGAQADDESDYYCALYMGSGISYVFGTGTKVTVL", 675],
  ["Fab VH5-51_IGHD5-18*01>3_IGHJ4*01 G100K/G104T (H:KT) & V3-4_IGLJ1*01 S99A (Fab, V domains shown, Fab; Expressed from Plasmid A (CH1, His6 and Flag tags) and Plasmid E (lambda CL); also called KT & S99A) VH: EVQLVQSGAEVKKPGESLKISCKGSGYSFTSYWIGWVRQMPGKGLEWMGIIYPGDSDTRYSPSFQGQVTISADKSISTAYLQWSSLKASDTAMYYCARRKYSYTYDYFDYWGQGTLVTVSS VL: QTVVTQEPSFSVSPGGTVTLTCGLSSGSVSTSYYPSWYQQTPGQAPRTLIYSTNTRSSGVPDRFSGSILGNKAALTITGAQADDESDYYCVLYMGSGIAYVFGTGTKVTVL", 693]
]}

Below: the item to evaluate.
State, in one line, measured ECL signal of Fab VH5-51_IGHD5-18*01>3_IGHJ4*01 G100K/G104T (H:KT) & V3-4_IGLJ1*01 L92A (Fab, V domains shown, Fab; Expressed from Plasmid A (CH1, His6 and Flag tags) and Plasmid E (lambda CL); also called KT & L92A) VH: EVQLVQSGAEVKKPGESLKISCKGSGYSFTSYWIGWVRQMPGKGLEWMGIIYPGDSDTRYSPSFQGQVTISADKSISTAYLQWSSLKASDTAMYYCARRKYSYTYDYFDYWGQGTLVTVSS VL: QTVVTQEPSFSVSPGGTVTLTCGLSSGSVSTSYYPSWYQQTPGQAPRTLIYSTNTRSSGVPDRFSGSILGNKAALTITGAQADDESDYYCVAYMGSGISYVFGTGTKVTVL
582
